Form field: kcat (one value per entry).
- Substrate: O=C(O)CCC(=O)C1=CC=C[C@@H](O)[C@@H]1C(=O)O
- PROTOCOL_NOTES: purified protein
- Format: biochemical, Thermobifida fusca
- STUDY_CONDITIONS: 50 mM Tris pH 8.0, 0.1 mM MnCl2, 25°C
// return numeric value only (unit: s⁻¹, not printed)

Consider the following illustrative entries.
PROTEIN	ASSAY_ENDPOINT	UNIT_INFO	MEASURED_VALUE
T. fusca OSBS (Thermobifida fusca YX; R15A) (protein) MTGRAFAIPLRTRFAGITVREGMLVRGAAGWGEFSPFAEYGPRECARWWAACYEAAELGWPAPVRDTVPVNATVPAVGPEEAARIVASSGCTTAKVKVAERGQSEANDVARVEAVRDALGPRGRVRIDVNGAWDVDTAVRMIRLLDRFELEYVEQPCATVDELAEVRRRVSVPIAADESIRRAEDPLRVRDAEAADVVVLKVQPLGGVRAALRLAEECGLPVVVSSAVETSVGLAAGVALAAALPELPYACGLATLRLLHADVCDDPLLPVHGVLPVRRVDVSEQRLAEVEIDPAAWQARLAAARAAWEQVEREPGP	kcat	s⁻¹	0.6
T. fusca OSBS (Thermobifida fusca YX; G252A) (protein) MTGRAFAIPLRTRFRGITVREGMLVRGAAGWGEFSPFAEYGPRECARWWAACYEAAELGWPAPVRDTVPVNATVPAVGPEEAARIVASSGCTTAKVKVAERGQSEANDVARVEAVRDALGPRGRVRIDVNGAWDVDTAVRMIRLLDRFELEYVEQPCATVDELAEVRRRVSVPIAADESIRRAEDPLRVRDAEAADVVVLKVQPLGGVRAALRLAEECGLPVVVSSAVETSVGLAAGVALAAALPELPYACALATLRLLHADVCDDPLLPVHGVLPVRRVDVSEQRLAEVEIDPAAWQARLAAARAAWEQVEREPGP	kcat	s⁻¹	16

Continue with the protein presented below.
kcat for T. fusca OSBS (Thermobifida fusca YX; R126M) (protein) MTGRAFAIPLRTRFRGITVREGMLVRGAAGWGEFSPFAEYGPRECARWWAACYEAAELGWPAPVRDTVPVNATVPAVGPEEAARIVASSGCTTAKVKVAERGQSEANDVARVEAVRDALGPRGRVMIDVNGAWDVDTAVRMIRLLDRFELEYVEQPCATVDELAEVRRRVSVPIAADESIRRAEDPLRVRDAEAADVVVLKVQPLGGVRAALRLAEECGLPVVVSSAVETSVGLAAGVALAAALPELPYACGLATLRLLHADVCDDPLLPVHGVLPVRRVDVSEQRLAEVEIDPAAWQARLAAARAAWEQVEREPGP ? 104
